Target Or System: UniProtKB Q06187
Test: Intracellular βBTK Y223 phosphorylation HTRF in Ramos cells
For each of the compounds below, state its pIC50.
Numbers only, as −log10 of the molar value.

Provide the reported pIC50 of each entry below, same order.
1. C=CC(=O)NC1CN(c2nc(Nc3ccc(N4CCOCC4)cc3)c3c(c2F)CNC3=O)CC1F (stereo not shown)
2. C=CC(=O)N1CCCC(Nc2nc(Nc3ccc(N4CCOCC4)c(Cl)c3)c3c(c2F)CNC3=O)C1 (stereo not shown)
3. C=CC(=O)N1CC(Nc2nc(Nc3ccc(N4CCOCC4)c(F)c3)c3c(c2F)CNC3=O)CCC1C (stereo not shown)
4. C=CC(=O)N(C)C1CCN(c2nc(Nc3cnn(C)c3)c3c(c2F)CNC3=O)C1 (stereo not shown)

1. 8.30
2. 8.52
3. 8.52
4. 7.25

----------
Test: in vivo
Condition Notes: male, ICR, mouse, in vivo, po, 30 mg/kg
Measured Attribute: log10 AUC (log10 of the value in ng·h/mL)
Note: values are log10 of AUC expressed in ng·h/mL.

Check out these entries, answers already filled in.
{"columns": ["Compound", "Measured Attribute", "Recorded Measurement"],
 "data": [
  ["C=CC(=O)N1CCCC(N(C)c2nc(Nc3cc(C)ns3)c3c(c2F)CNC3=O)C1 (stereo not shown) [Compound G-72]", "log10 AUC", 2.03],
  ["C=CC(=O)N1CCCC(Nc2nc(-c3cnn(C)c3)c3c(c2F)CNC3=O)C1 (stereo not shown) [Compound G-7]", "log10 AUC", 3.12],
  ["C=CC(=O)N1CC(Nc2nc(-c3cnn(C)c3)c3c(c2F)CNC3=O)CCC1C (stereo not shown) [Compound G-26]", "log10 AUC", 3.11],
  ["C=CC(=O)N1CCC[C@@H](Nc2nc(Nc3ccc(N4CCN(C5COC5)C[C@@H]4C)c(F)c3)c3c(c2F)CNC3=O)C1 [Compound G-91]", "log10 AUC", 3.50],
  ["C=CC(=O)N1CCC[C@@H](Nc2nc(-c3cnn(C)c3)c3c(c2F)CNC3=O)C1 [Compound G-111]", "log10 AUC", 3.34],
  ["C=CC(=O)N1CCCC(N(C)c2nc(Nc3ccc(N4CCOCC4)cc3)c3c(c2F)CNC3=O)C1 (stereo not shown) [Compound G-71]", "log10 AUC", 2.78]
]}

Please indicate log10 AUC recorded for C=CC(=O)N1CCC[C@H](Nc2nc(Nc3ccc(N4CCOCC4)cc3)c3c(c2F)CNC3=O)C1 [Compound G-114]
3.03

----------
Test: in vivo
Condition Notes: male, ICR, mouse, in vivo, po, 30 mg/kg
For each of the molecules below, state its Cmax.
Numbers only, in ng/mL.

{"columns": ["Molecule", "Cmax, ng/mL"],
 "data": [
  ["C=CC(=O)N1CCC[C@@H](Nc2nc(-c3cnn(C)c3)c3c(c2F)CNC3=O)C1", 3490],
  ["C=CC(=O)N1CCCC(Nc2nc(-c3cnn(C)c3)c3c(c2F)CNC3=O)C1 (stereo not shown)", 1830],
  ["C=CC(=O)N1CCC[C@H](Nc2nc(Nc3ccc(N4CCOCC4)cc3)c3c(c2F)CNC3=O)C1", 1240]
]}

Please indicate Cmax recorded for C=CC(=O)N1CCCC(N(C)c2nc(Nc3cc(C)ns3)c3c(c2F)CNC3=O)C1 (stereo not shown)
10.7

----------
Record type: pIC50 measurement. Applies to: BTK WT (Homo sapiens (Human))
Numbers only, as −log10 of the molar value.

Check out these entries, answers already filled in.
{"columns": ["Compound", "Target Or System", "Measured Attribute", "Recorded Measurement"],
 "data": [
  ["C=CC(=O)NC1CN(c2nc(Nc3ccc(N4CCOCC4)cc3)c3c(c2F)CNC3=O)CC1F (stereo not shown)", "BTK WT (Homo sapiens (Human))", "pIC50", 9.00],
  ["C=CC(=O)N1CCCC(Nc2nc(Nc3ccc(N4CCOCC4)c(F)c3)c3c(c2F)CNC3=O)C1 (stereo not shown)", "BTK WT (Homo sapiens (Human))", "pIC50", 8.30],
  ["C=CC(=O)N1CCCC(N(CC)c2nc(Nc3ccc(N4CCOCC4)cc3)c3c(c2F)CNC3=O)C1 (stereo not shown)", "BTK WT (Homo sapiens (Human))", "pIC50", 8.15]
]}

# context switch: different compound, same pIC50
Please indicate pIC50 recorded for C=CC(=O)N1CC2CN(c3nc(-c4cnn(C)c4)c4c(c3F)CNC4=O)CC2C1 (stereo not shown)
8.30

----------
Test: in vivo
Condition Notes: mouse, in vivo, po, 30 mg/kg
Lab note - cut at 1000 ng·h/mL for Area under curve AUC: TRUE if strictly below, FALSE if not.

Examples from the recorded data:
{"columns": ["Compound", "Classification"],
 "data": [
  ["C=CC(=O)N1CCCC(Nc2nc(Nc3ccc(N4CCOCC4C)cc3)c3c(c2F)CNC3=O)C1 (stereo not drawn)", "FALSE"],
  ["C=CC(=O)N1CCCC(N(C)c2nc(-c3cnn(C)c3)c3c(c2F)CNC3=O)C1 (stereo not drawn)", "TRUE"],
  ["C=CC(=O)N1CCCC(Nc2nc(Nc3ccc(N4CCOCC4C)c(F)c3)c3c(c2F)CNC3=O)C1 (stereo not drawn)", "FALSE"],
  ["C=CC(=O)N1CCCC(Nc2nc(Nc3ccc(N4CCOCC4)c(Cl)c3)c3c(c2F)CNC3=O)C1 (stereo not drawn)", "FALSE"]
]}

Just wondering, is Area under curve AUC of C=CC(=O)N1CCCC(Nc2nc(Nc3cc(C)ns3)c3c(c2F)CNC3=O)C1 (stereo not drawn) below 1000 ng·h/mL?
TRUE

Just wondering, is Area under curve AUC of C=CC(=O)N1CCCC(Nc2nc(Nc3ccc(N4CCOCC4)cc3F)c3c(c2F)CNC3=O)C1 (stereo not drawn) below 1000 ng·h/mL?
FALSE

----------
Record type: IC50 measurement. Applies to: UniProtKB Q06187
Give your result as the value with the unit written after it.

Check out these entries, answers already filled in.
{"columns": ["Compound", "Target Or System", "IC50"],
 "data": [
  ["C=CC(=O)N1CCCC(Nc2nc(Nc3ccc(C(=O)N4CCOCC4)cc3)c3c(c2F)CNC3=O)C1 (stereo not shown)", "UniProtKB Q06187", "5 nM"],
  ["C=CC(=O)N1CCCC(N(C)c2nc(Nc3ccc(N4CCOCC4)cc3)c3c(c2F)CNC3=O)C1 (stereo not shown)", "UniProtKB Q06187", "5 nM"],
  ["C=CC(=O)N1CCCCC(Nc2nc(Nc3ccc(N4CCOCC4)cc3)c3c(c2F)CNC3=O)C1 (stereo not shown)", "UniProtKB Q06187", "5 nM"]
]}

Please indicate IC50 recorded for C=CC(=O)N1CCC2(CCN(c3nc(-c4cnn(C)c4)c4c(c3F)CNC4=O)C2)C1 (stereo not shown)
51 nM

----------
Test: in vivo
Condition Notes: male, ICR, mouse, in vivo, po, 30 mg/kg
Measured Attribute: bioavailability (%)
Answers are plain numbers, in %.

{"columns": ["Compound", "Unit String", "Recorded Measurement"],
 "data": [
  ["C=CC(=O)N1CC(Nc2nc(-c3cnn(C)c3)c3c(c2F)CNC3=O)CCC1C (stereo not drawn)", "%", 13.1],
  ["C=CC(=O)N1CCCC(Nc2nc(-c3cnn(C)c3)c3c(c2F)CNC3=O)C1 (stereo not drawn)", "%", 25.4],
  ["C=CC(=O)N1CCC[C@H](Nc2nc(Nc3ccc(N4CCOCC4)cc3)c3c(c2F)CNC3=O)C1", "%", 13.7],
  ["C=CC(=O)N1CCCC(N(C)c2nc(Nc3ccc(N4CCOCC4)cc3)c3c(c2F)CNC3=O)C1 (stereo not drawn)", "%", 7.4],
  ["C=CC(=O)N1CCC[C@@H](Nc2nc(Nc3ccc(N4CCN(C5COC5)C[C@@H]4C)c(F)c3)c3c(c2F)CNC3=O)C1", "%", 21.3]
]}

# context switch: different compound, same bioavailability
Please indicate bioavailability recorded for C=CC(=O)N1CCC[C@@H](Nc2nc(-c3cnn(C)c3)c3c(c2F)CNC3=O)C1
79.7

----------
Test: in vivo
Condition Notes: mouse, in vivo, po, 30 mg/kg
For each of the compounds below, state its Maximum blood concentration Cmax.
One number for each entry, in ng/mL.

Check out these entries, answers already filled in.
{"columns": ["Compound", "Maximum blood concentration Cmax [ng/mL]"],
 "data": [
  ["C=CC(=O)N1CCCC(Nc2nc(Nc3cc(C)ns3)c3c(c2F)CNC3=O)C1 (centres unmarked)", 878.7],
  ["C=CC(=O)N1CCCC(Nc2nc(Nc3ccc(N4CCOCC4)c(Cl)c3)c3c(c2F)CNC3=O)C1 (centres unmarked)", 1501.0],
  ["C=CC(=O)N1CCCC(Nc2nc(Nc3ccc(N4CCOCC4C)c(F)c3)c3c(c2F)CNC3=O)C1 (centres unmarked)", 945.0],
  ["C=CC(=O)N1CCCC(Nc2nc(Nc3ccc(N4CCN(C5COC5)CC4C)cc3)c3c(c2F)CNC3=O)C1 (centres unmarked)", 1990.0]
]}

# context switch: different compound, same Maximum blood concentration Cmax
Please indicate Maximum blood concentration Cmax recorded for C=CC(=O)N1CCCC(Nc2nc(Nc3ccc(N4CCOCC4)cc3F)c3c(c2F)CNC3=O)C1 (centres unmarked)
1237.0

Origin of measurements: patent US11155546B2
